Provenance of the data: the supplement of paper PMC7125110

B1: glmS ribozyme (parent)
chain: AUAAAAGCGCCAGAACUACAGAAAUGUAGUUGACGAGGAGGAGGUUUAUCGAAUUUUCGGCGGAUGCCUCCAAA

variants of: B1; test: self-cleavage kobs at 40 uM GlcN6P; higher = faster cleavage; RNA array; settings: with glucosamine-6-phosphate
Variants at the floor of the assay were thinned out.
Could you please report measured self-cleavage kobs at 40 uM GlcN6P for the items listed next?

>>> reported_result("U56A C67G")
"6.73e-05 s⁻¹"
>>> reported_result("C16U G40U C68G")
"< 1e-05 s⁻¹"
>>> reported_result("G13U G29A G44U U55G")
"< 1e-05 s⁻¹"
>>> reported_result("U47G G66A C70U")
"0.000121 s⁻¹"
>>> reported_result("G37A G51A U55G")
"< 1e-05 s⁻¹"

Hi, could you look up self-cleavage kobs at 40 uM GlcN6P for each item in my list?
1. A12C C16U
2. G37A U45C C58U C61G
3. U45A A48C C58U
4. C16G U45A
5. A42U C71U
6. A36G U49G

0.000543 s⁻¹
< 1e-05 s⁻¹
< 1e-05 s⁻¹
0.000245 s⁻¹
< 1e-05 s⁻¹
< 1e-05 s⁻¹
